Test system: P. falciparum NF54 strain
Test: P. falciparum NF54 growth assay, 3H-hypoxanthine incorporation (hit validation)
Type: cell-based, Plasmodium falciparum
Details: Plasmodium falciparum, 3D7 / NF54; range over HTS (3D7) and retest after synthesis (NF54); read-out: EC50 range over the two assays
Outcome measure: EC50

Please review the entries below; each comes with its answer.
Smiles input | Study system | Outcome measure | Reported result
CCOc1ncccc1C(=O)Nc1cc(C(F)(F)F)ccc1Oc1cccc(OC)c1 | P. falciparum NF54 strain | EC50 | 0.309 to 0.393 µM
O=C(c1cccc(-c2noc(CN(CCN3CCCCC3)C(=O)c3ccccc3)n2)c1)N1CCCNCC1 | P. falciparum NF54 strain | EC50 | 0.06 to 0.181 µM
Cc1csc(Sc2ncnc3sccc23)n1 | P. falciparum NF54 strain | EC50 | 0.102 to 0.194 µM

Now consider the entry below.
Query EC50 on P. falciparum NF54 strain for O=C(Nc1cc(=O)[nH]c2nc(-c3ccccc3)nn12)C1CCCCC1
0.45 to 0.648 µM

----------
System: P. falciparum NF54 strain
Assay: P. falciparum NF54 growth assay, 3H-hypoxanthine incorporation (hit validation)
Format: cell-based, Plasmodium falciparum
Details: Plasmodium falciparum; negative logarithm of the molar EC50, NF54; read-out: pEC50 (NF54) (converted)
Outcome measure: EC50 (nM)

Compound | EC50 / nM
O=C(O)[C@H]1Cc2c([nH]c3ccccc23)[C@@H](c2ccc(Cl)cc2Cl)N1 [Compound 14c] | 3980

[1] CCOc1ncccc1C(=O)Nc1cc(C(F)(F)F)ccc1Oc1cccc(OC)c1
[2] COc1ccc2c(c1)C1(Nc3ccccc3-c3nc4ccccc4n31)C(=O)N2 (stereo not shown)
Pick one, 1 or 2 : lowest reported EC50. In your reply, give the label of the chosen option.
2
(2: 63.1 nM, 1: 316 nM)

----------
Test system: P. falciparum NF54 strain
Assay: P. falciparum NF54 growth assay, 3H-hypoxanthine incorporation (hit validation)
Type: cell-based, Plasmodium falciparum
Conditions: Plasmodium falciparum; P. falciparum NF54, after synthesis; read-out: EC50 (NF54)
Outcome measure: EC50

Fill in the blank: the reported EC50 of COc1ccc(NC(=O)c2cnn(-c3ccccc3)c2-c2ccccc2)c(OC)c1 is ____.
~4 µM

----------
Property: EC50; scope: individual molecules
Test system: P. falciparum NF54 strain
Assay: P. falciparum NF54 growth assay, 3H-hypoxanthine incorporation (hit validation)
Type: cell-based, Plasmodium falciparum
Settings: Plasmodium falciparum; negative logarithm of the molar EC50, NF54; read-out: pEC50 (NF54) (converted)
Protocol: Synthesized compounds were tested in an alternative assay, in which ^3H-hypoxanthine incorporation was measured in the chloroquine-sensitive strain NF54 (Values were measured in duplicate, 12 points/EC50). Cultivation of Plasmodium falciparum: Plasmodium falciparum strain NF54 was obtained from the Research and Reference Reagent Resource Center (MR4) (Manassas, VA, USA). […] Assay data were analysed using Graph pad prism ver.5 software. […]

Previously resolved entries follow.
Molecule | Study system | Reported result
O=C(O)[C@H]1Cc2c([nH]c3ccccc23)[C@H](c2ccc(Cl)cc2Cl)N1 [Compound 14d] | P. falciparum NF54 strain | > 10 µM
CC(=O)N1c2ccccc2[C@@H](c2ccccc2)[C@@H]1C(=O)O (racemic) | P. falciparum NF54 strain | > 10 µM

Let us move to another entry and its EC50.
Any idea what EC50 came out for CC(=O)N1CCN(Cc2coc(Cc3ccccc3)n2)CC1 on P. falciparum NF54 strain?
> 10 µM
